Biological target: Androgen Receptor (Homo sapiens)
Construct: endogenous in cells; host or cells: VCaP cells
Sequence (P10275 1-920): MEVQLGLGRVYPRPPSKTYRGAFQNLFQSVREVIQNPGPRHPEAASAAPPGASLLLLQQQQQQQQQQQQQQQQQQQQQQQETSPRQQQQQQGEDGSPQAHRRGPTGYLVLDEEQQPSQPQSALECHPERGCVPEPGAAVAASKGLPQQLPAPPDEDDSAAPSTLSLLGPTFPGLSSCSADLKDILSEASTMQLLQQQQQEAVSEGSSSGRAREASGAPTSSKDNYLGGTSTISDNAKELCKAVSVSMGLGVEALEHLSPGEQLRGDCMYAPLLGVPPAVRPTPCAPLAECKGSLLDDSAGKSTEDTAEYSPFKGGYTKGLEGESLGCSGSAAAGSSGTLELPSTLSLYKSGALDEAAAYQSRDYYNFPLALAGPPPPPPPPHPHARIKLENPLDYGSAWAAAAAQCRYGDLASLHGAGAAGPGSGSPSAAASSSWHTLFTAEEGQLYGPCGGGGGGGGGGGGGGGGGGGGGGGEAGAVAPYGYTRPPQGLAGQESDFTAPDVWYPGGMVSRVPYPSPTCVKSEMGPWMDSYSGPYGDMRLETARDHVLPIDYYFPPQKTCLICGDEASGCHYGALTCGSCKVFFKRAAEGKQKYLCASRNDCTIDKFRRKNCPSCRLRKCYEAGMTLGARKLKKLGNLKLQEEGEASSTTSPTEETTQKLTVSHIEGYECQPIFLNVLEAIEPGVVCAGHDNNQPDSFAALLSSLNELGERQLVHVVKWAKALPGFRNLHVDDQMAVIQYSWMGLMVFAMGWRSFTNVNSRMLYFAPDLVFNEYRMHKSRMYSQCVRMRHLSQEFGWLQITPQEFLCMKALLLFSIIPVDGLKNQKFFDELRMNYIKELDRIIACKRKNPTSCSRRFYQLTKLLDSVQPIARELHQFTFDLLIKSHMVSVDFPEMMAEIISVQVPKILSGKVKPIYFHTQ
Assay: Androgen Receptor ELISA assay (PathScan AR ELISA) in VCaP cells: AR degradation, Dmax and DC50
Type: cell-based
Conditions: VCaP, VCaP cells; Table 36; read-out: VCaP Dmax (%)
Field: Dmax. Provide a value for each of the compounds that follow.

Worked cases, Dmax given:
>  <compound>
Cc1ncsc1-c1ccc([C@H](C)NC(=O)[C@@H]2C[C@@H](O)CN2C(=O)[C@@H](NC(=O)CN2CCN(CCCc3ccc(C(=O)N[C@H]4C(C)(C)[C@H](Oc5ccc(C#N)c(Cl)c5)C4(C)C)cn3)CC2)C(C)(C)C)cc1 [Example 837]

>  <Dmax>
> 71%

$$$$
>  <compound>
Cc1ncsc1-c1ccc([C@H](C)NC(=O)C2C[C@@H](O)CN2C(=O)C(NC(=O)CN2CCN(CCN3CCN(c4ccc(C(=O)N[C@H]5C(C)(C)[C@H](Oc6ccc(C#N)c(Cl)c6)C5(C)C)cn4)CC3)CC2)C(C)(C)C)cc1 (stereo partly shown) [Example 789]

>  <Dmax>
> 71%

$$$$
>  <compound>
CC(C)[C@@H](C(=O)N1C[C@H](O)C[C@H]1C(=O)NCc1ccc(Cl)cc1OCCN1CCN(c2ccc(C(=O)N[C@H]3C(C)(C)[C@H](Oc4ccc(C#N)c(Cl)c4)C3(C)C)cn2)CC1)N1Cc2ccccc2C1=O [Example 743]

>  <Dmax>
< 25%

$$$$

Could you tell me Dmax for each of these compounds? They are listed below.
1. Cc1ncsc1-c1ccc([C@H](C)NC(=O)[C@@H]2C[C@@H](O)CN2C(=O)[C@@H](NC(=O)CN2CCN(CCCOCc3cc(C(=O)N[C@@H](C)Cn4ccc(-c5ccc(C#N)c(Cl)c5)n4)n[nH]3)CC2)C(C)(C)C)cc1 [Example 698]
2. Cc1ncsc1-c1ccc([C@H](C)NC(=O)[C@@H]2C[C@@H](O)CN2C(=O)[C@@H](NC(=O)COCCN2CCN(c3ccc(C(=O)N[C@H]4C(C)(C)[C@H](Oc5ccc(C#N)c(C(F)(F)F)c5)C4(C)C)cn3)CC2)C(C)(C)C)cc1 [Example 855]
3. CC(C)(C)[C@H](NC(=O)COCCN1CCN(c2ccc(C(=O)N[C@H]3C(C)(C)[C@H](Oc4ccc(C#N)c(Cl)c4)C3(C)C)cn2)CC1)C(=O)N1C[C@H](O)C[C@H]1C(=O)NCc1ccc(C2CCC2)cc1 [Example 758]
4. Cc1ncsc1-c1ccc(CNC(=O)[C@@H]2C[C@@H](O)CN2C(=O)[C@H](C(C)C)N2Cc3ccccc3C2=O)c(OCCN2CCN(c3ccc(C(=O)N[C@H]4C(C)(C)[C@H](Oc5ccc(C#N)c(C(F)(F)F)c5)C4(C)C)cn3)CC2)c1 [Example 733]
5. Cc1ncsc1-c1ccc(C(C)NC(=O)[C@@H]2C[C@@H](OCOC(=O)OC(C)C)CN2C(=O)[C@@H](NC(=O)COCCCCCNc2ccc(C(=O)N[C@H]3C(C)(C)[C@H](Oc4ccc(C#N)c(Cl)c4)C3(C)C)cc2)C(C)(C)C)cc1 (stereo partly shown) [Example 653]
6. CC(C)(C)[C@H](NC(=O)COCCN1CCN(c2ccc(C(=O)N[C@H]3C(C)(C)[C@H](Oc4ccc(C#N)c(Cl)c4)C3(C)C)cn2)CC1)C(=O)N1C[C@H](O)C[C@H]1C(=O)NCc1ccc(C2CC2)cc1 [Example 757]
7. C[C@H](NC(=O)[C@@H]1C[C@@H](O)CN1C(=O)[C@@H](NC(=O)COCCN1CCN(c2ccc(C(=O)N[C@H]3C(C)(C)[C@H](Oc4ccc(C#N)c(Cl)c4)C3(C)C)cn2)CC1)C(C)(C)C)c1ccc(-c2scnc2CO)cc1 [Example 673]

RESULT:
1. > 71%
2. > 71%
3. < 25%
4. > 71%
5. 51 to 70%
6. 26 to 50%
7. > 71%

Give me Dmax for each of these compounds, listed below.
1. Cc1ncsc1-c1ccc([C@H](C)NC(=O)[C@@H]2C[C@@H](O)CN2C(=O)C(c2cc(CCN3CCN(c4ccc(C(=O)N[C@H]5C(C)(C)[C@H](Oc6ccc(C#N)c(Cl)c6)C5(C)C)cn4)CC3)no2)C(C)C)cc1 (stereo partly shown) [Example 838]
2. Cc1ncsc1-c1ccc([C@H](C)NC(=O)[C@@H]2C[C@@H](O)CN2C(=O)[C@H](C(C)C)N(C)C(=O)CN2CCN(CCOc3ccc(C(=O)N[C@H]4C(C)(C)[C@H](Oc5ccc(C#N)c(Cl)c5)C4(C)C)cc3)CC2)cc1 [Example 683]
3. Cc1ncsc1-c1ccc(C(NC(=O)[C@@H]2C[C@@H](O)CN2C(=O)C(NC(=O)COCCN2CCN(c3ccc(C(=O)N[C@H]4C(C)(C)[C@H](Oc5ccc(C#N)c(C(F)(F)F)c5)C4(C)C)cn3)CC2)C(C)(C)C)C2COC2)cc1 (stereo partly shown) [Example 704]
4. Cc1ncsc1-c1ccc(CNC(=O)[C@@H]2C[C@@H](O)CN2C(=O)[C@H](C(C)C)N2Cc3ccccc3C2=O)c(N2CCN(CCCc3ccc(C(=O)N[C@H]4C(C)(C)[C@H](Oc5ccc(C#N)c(C(F)(F)F)c5)C4(C)C)cc3)CC2)c1 [Example 753]
5. Cc1ncsc1-c1ccc([C@H](C)NC(=O)[C@@H]2C[C@@H](O)CN2C(=O)[C@@H](NC(=O)COCCN2CCN(c3ccc(C(=O)N[C@H]4C(C)(C)[C@H](Oc5ccc(C#N)c(C(F)(F)F)c5)C4(C)C)nn3)CC2)C(C)(C)C)cc1 [Example 684]

RESULT:
51 to 70%
26 to 50%
< 25%
51 to 70%
51 to 70%

QUERY: Param item = Cc1ncsc1-c1ccc([C@H](C)NC(=O)[C@@H]2C[C@@H](O)CN2C(=O)[C@@H](NC(=O)CCCC/C(CCCc2ccc(C(=O)N[C@H]3C(C)(C)[C@H](Oc4ccc(C#N)c(Cl)c4)C3(C)C)nc2)=N\O)C(C)(C)C)cc1 [Example 693] ; retrieve measured Dmax.
RESULT: 26 to 50%
